src = patent US9233961B2

tested on: L. donovani HU3 strain in mouse peritoneal macrophages; experiment: Assay for proliferation of Leishmania parasites in mouse peritoneal macrophages; format: cell-based, Leishmania donovani; conditions: Leishmania donovani, Peritoneal macrophage, read-out: L. donavani Macrophage EC50
pEC50: −log10 of the molar value.

COMPOUND	pEC50
Cc1cnc2nc(-c3cc(NC(=O)c4ccnc([S+](C)[O-])n4)ccc3Cl)[nH]c2c1 (stereo not shown)	< 4.30
O=C(Nc1ccc(C(F)(F)F)cc1)Nc1ccc(F)c(-c2nc3ncc(N4CCCCC4)cc3o2)c1	< 4.52
Cc1cnc2nc(-c3cc(NC(=O)Cc4ccc(N(C)C)cc4)ccc3Cl)[nH]c2c1	< 4.41
Cc1ncoc1C(=O)Nc1ccc(F)c(-c2nc3ncc(Br)cc3o2)c1	< 4.30
Cc1cnc2nc(-c3cc(NC(=O)N4CCN(C)CC4)ccc3Cl)[nH]c2c1	< 4.30
Cc1cnc2nc(-c3cc(NC(=O)c4ccc(OCCN(C)C)cc4)ccc3F)[nH]c2c1	< 4.30
CN(C)CCn1c(-c2cc(NC(=O)N3CCCC3)ccc2Cl)nc2ncc(Br)cc21	< 4.30
O=C(Nc1ccc(F)c(-c2nc3ncc(Br)cc3[nH]2)c1)N1CCOCC1	< 4.30
CO[C@@H](C(=O)Nc1ccc(Cl)c(-c2nc3ncc(C)cc3[nH]2)c1)c1ccccc1	< 4.52
Cc1cnc2nc(-c3cc(NC(=O)OC4CCCCC4)ccc3Cl)[nH]c2c1	< 4.65
Cc1cnc2nc(-c3cc(NC(=O)c4ccc(F)s4)ccc3Cl)[nH]c2c1	< 4.51
O=C(Nc1ccc(Cl)c(-c2nc3ncc(Br)cc3[nH]2)c1)c1cocn1	< 4.30
Cc1cnc2nc(-c3cc(NS(=O)(=O)Cc4ccccc4)ccc3Cl)[nH]c2c1	< 4.30
